These data points were gathered from the SangsterLogP compilation.

# assay.protocol: method code SF-AS, from DOI: 10.1002/jps.2600800814, PMID: 1791539
Please go through the items and note down their logP.

## Task Bench note: what logP did COc1cncc(Cl)n1 show?
## Result 1.65

## Task Bench note: what logP did CN(C)c1cnc(Cl)cn1 show?
## Result 1.7

## Task Bench note: what logP did COc1cncc(N)n1 show?
## Result 0.73

## Task Bench note: what logP did Clc1cnc(Cl)cn1 show?
## Result 1.58

## Task Bench note: what logP did CCOC(=O)c1cncc(N(C)C)n1 show?
## Result 1.24

## Task Bench note: what logP did Fc1cncc(Cl)n1 show?
## Result 1.15

## Task Bench note: what logP did CC(=O)Nc1cnc(Cl)cn1 show?
## Result 0.56

## Task Bench note: what logP did Cc1nc(C#N)c(C#N)nc1Cl show?
## Result 1.29

## Task Bench note: what logP did CN(C)c1cncc(Cl)n1 show?
## Result 1.95

## Task Bench note: what logP did CCCCc1nc(C#N)c(C#N)nc1C show?
## Result 2.3

## Task Bench note: what logP did Nc1cnc(Cl)cn1 show?
## Result 0.67

## Task Bench note: what logP did COc1cnc(N(C)C)cn1 show?
## Result 1.65

## Task Bench note: what logP did Fc1cncc(F)n1 show?
## Result 0.74

## Task Bench note: what logP did COc1cncc(OC)n1 show?
## Result 1.58

## Task Bench note: what logP did COC(=O)c1cncc(OC)n1 show?
## Result 0.69

## Task Bench note: what logP did COc1cnc(OC)cn1 show?
## Result 1.14

## Task Bench note: what logP did COc1cnc(N)cn1 show?
## Result 0.63

## Task Bench note: what logP did CCOC(=O)c1cncc(C)n1 show?
## Result 0.51

## Task Bench note: what logP did Cc1cncc(Cl)n1 show?
## Result 1.03

## Task Bench note: what logP did CCOc1cncc(C(N)=O)n1 show?
## Result 0.61

## Task Bench note: what logP did COc1nccnc1C show?
## Result 1.24

## Task Bench note: what logP did CN(C)c1cncc(C#N)n1 show?
## Result 1.12

====

# assay.protocol: method code SF-AS, from DOI: 10.1002/jps.2600800814, PMID: 1791539
measurement.name: logP

## Task Bench note: what logP did CC(=O)Nc1cncc(C)n1 show?
## Result 0.38

## Task Bench note: what logP did COc1cncc(C)n1 show?
## Result 1.29

## Task Bench note: what logP did CCOC(=O)c1cnc(C)cn1 show?
## Result 0.61

## Task Bench note: what logP did COc1cncc(NC(C)=O)n1 show?
## Result 0.82

## Task Bench note: what logP did N#Cc1ncc(Cl)nc1C#N show?
## Result 0.95

## Task Bench note: what logP did CCc1nccnc1OC show?
## Result 1.8

## Task Bench note: what logP did NC(=O)c1cncc(Cl)n1 show?
## Result 0.28

## Task Bench note: what logP did CCc1nccnc1CC show?
## Result 1.51

## Task Bench note: what logP did CCOc1cnc(Cl)cn1 show?
## Result 1.99

## Task Bench note: what logP did Cc1nc(C)c(C)nc1C show?
## Result 1.28

## Task Bench note: what logP did CCc1nc(C#N)c(C#N)nc1Cl show?
## Result 1.79
